# MEASURED TARGET: Ephrin type-A receptor 2 (Homo sapiens) (UniProt P29317)
# Sequence (P29317 whole entry): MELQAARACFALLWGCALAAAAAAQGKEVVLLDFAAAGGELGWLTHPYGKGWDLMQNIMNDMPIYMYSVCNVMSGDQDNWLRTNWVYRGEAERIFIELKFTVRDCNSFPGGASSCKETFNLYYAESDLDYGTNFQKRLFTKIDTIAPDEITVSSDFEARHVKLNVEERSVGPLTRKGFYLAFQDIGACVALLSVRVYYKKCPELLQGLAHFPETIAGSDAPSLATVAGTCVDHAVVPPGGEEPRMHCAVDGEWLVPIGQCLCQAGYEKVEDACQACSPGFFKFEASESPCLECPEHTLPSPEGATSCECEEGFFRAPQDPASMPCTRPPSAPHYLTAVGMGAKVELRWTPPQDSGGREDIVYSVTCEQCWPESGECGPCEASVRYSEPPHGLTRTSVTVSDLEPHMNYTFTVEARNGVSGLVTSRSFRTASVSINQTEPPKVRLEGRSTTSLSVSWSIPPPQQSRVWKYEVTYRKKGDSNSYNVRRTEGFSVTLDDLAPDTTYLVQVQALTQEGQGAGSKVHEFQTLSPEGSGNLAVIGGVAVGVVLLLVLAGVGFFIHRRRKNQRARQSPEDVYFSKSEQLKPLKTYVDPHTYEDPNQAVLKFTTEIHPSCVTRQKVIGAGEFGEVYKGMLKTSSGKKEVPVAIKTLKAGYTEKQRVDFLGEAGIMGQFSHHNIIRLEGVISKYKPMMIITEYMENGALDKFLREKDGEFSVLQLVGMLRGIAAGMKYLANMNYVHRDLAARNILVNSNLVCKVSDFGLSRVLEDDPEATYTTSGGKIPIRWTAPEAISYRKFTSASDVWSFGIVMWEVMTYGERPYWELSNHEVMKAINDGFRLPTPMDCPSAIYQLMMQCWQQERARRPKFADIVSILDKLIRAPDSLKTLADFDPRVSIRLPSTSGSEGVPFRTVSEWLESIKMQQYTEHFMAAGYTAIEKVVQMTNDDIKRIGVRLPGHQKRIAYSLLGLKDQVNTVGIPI
# TEST CONTEXT: at 10 µM
METRIC: residual activity (%)
Answers are plain numbers, in %.

Previously resolved entries follow.
SMILES INPUT: Nc1ncnc2[nH]nc(Nc3ccc(F)cc3)c12
MEASURED TARGET: Ephrin type-A receptor 2 (Homo sapiens) (UniProt P29317)
METRIC: residual activity
UNIT SPEC: %
MEASUREMENT: 50
--
SMILES INPUT: O=C1NC(=O)C(c2c[nH]c3ccccc23)=C1c1c[nH]c2ccccc12
MEASURED TARGET: Ephrin type-A receptor 2 (Homo sapiens) (UniProt P29317)
METRIC: residual activity
UNIT SPEC: %
MEASUREMENT: 50

Next item in the queue.
Which measured residual activity value corresponds to `NCCNc1ncc(C(N)=O)c(Nc2cccc(C(F)(F)F)c2)n1` ?
76

----------
# MEASURED TARGET: Dual specificity protein kinase CLK2 (Homo sapiens) (UniProt P49760)
# Sequence (P49760 whole entry, looked up): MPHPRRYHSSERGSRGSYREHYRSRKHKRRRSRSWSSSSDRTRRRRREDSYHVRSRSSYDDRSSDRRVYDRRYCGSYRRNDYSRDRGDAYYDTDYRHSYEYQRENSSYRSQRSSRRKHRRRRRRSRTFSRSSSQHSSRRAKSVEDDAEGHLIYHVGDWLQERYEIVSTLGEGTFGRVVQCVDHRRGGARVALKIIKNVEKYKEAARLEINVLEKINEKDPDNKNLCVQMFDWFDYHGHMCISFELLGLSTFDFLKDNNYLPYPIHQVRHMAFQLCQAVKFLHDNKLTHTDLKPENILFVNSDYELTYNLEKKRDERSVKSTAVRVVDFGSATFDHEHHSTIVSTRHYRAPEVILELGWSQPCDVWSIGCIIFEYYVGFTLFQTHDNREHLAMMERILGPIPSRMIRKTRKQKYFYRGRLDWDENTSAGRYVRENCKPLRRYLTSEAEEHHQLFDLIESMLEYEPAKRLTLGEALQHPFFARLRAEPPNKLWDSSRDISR
# TEST CONTEXT: at 10 µM
Could you please report measured residual activity for the items listed next?
Numbers only, in %.

Previously resolved entries follow.
SMILES INPUT: CC(C)(C)c1nc2c3ccc(F)cc3c3c(=O)[nH]ccc3c2[nH]1
UNIT SPEC: %
residual activity: 50
//
SMILES INPUT: Nc1nc(Nc2ccc(S(N)(=O)=O)cc2)nn1C(=O)c1c(F)cccc1F
UNIT SPEC: %
residual activity: 9

Next item in the queue.
Which measured residual activity value corresponds to `N#C/C(=C\c1ccc(O)c(O)c1)C(=O)NCc1ccccc1` ?
80

----------
# MEASURED TARGET: Phosphorylase b kinase gamma catalytic chain, liver/testis isoform (Homo sapiens)
# TEST CONTEXT: at 10 µM
Could you please report measured residual activity for the items listed next?
Give the value; after it, write the unit.

Previously resolved entries follow.
SMILES INPUT: CC(C)[C@H](CO)Nc1nc(Nc2cc(N)cc(Cl)c2)c2ncn(C(C)C)c2n1
MEASUREMENT: 97%
--
SMILES INPUT: COc1ccc(Cl)cc1NC(=O)Nc1cc(C)nc2ccccc12
MEASUREMENT: 53%
--
SMILES INPUT: O=c1cc(N2CCOCC2)oc2c1ccc1ccccc12
MEASUREMENT: 89%
--
SMILES INPUT: CC(C)N(CCC(=O)c1ccc2ccccc2c1)Cc1ccccc1
MEASUREMENT: 80%
--
SMILES INPUT: CN([C@@H](Cc1ccc(OS(=O)(=O)c2cccc3cnccc23)cc1)C(=O)N1CCN(c2ccccc2)CC1)S(=O)(=O)c1cccc2cnccc12
MEASUREMENT: 98%

State the recorded residual activity for every item in the following list.
1. O=C1NC(=O)c2c1c1c3ccccc3[nH]c1n1cncc21
2. COc1cc2nccc(Oc3ccc(NC(=S)NC(=O)c4ccccc4C)cc3)c2cc1OC
3. O=C(c1ccccc1)c1ccc(N2CCOCC2)cc1O

1. 70%
2. 45%
3. 113%

State the recorded residual activity for every item in the following list.
1. Nc1ncnc2[nH]nc(Nc3ccc(F)cc3)c12
2. COc1cc2ncnc(Nc3cccc(Cl)c3)c2cc1OC
3. O=C(O)/C=C/c1cc(Br)c(Br)c(Br)c1Br

["99%", "107%", "63%"]

Values compiled from ChEMBL document CHEMBL2218924.
